Reported Copper Removing Performance from Shampoo is given for each of the following compounds.
# ASSAY_INFO: Copper on hair after repeat shampoo wash cycles (ICP-OES), versus shampoo without chelant
# CONDITION_DESCRIPTION: clarifying shampoo containing the chelant, 20 cycles, copper content of hair compared to shampoo without the chelant
Field format: number, assumed %, no unit text.

| COMPOUND | RESULT_VALUE |
| --- | --- |
| NCCCNCCCNCCCN [1,5,9,13-Tetraazatridecane] | 15 |
| NCCNCCNCCN [2,3-Triethylenetetramine] | 70 |
| NCCNCCNCCNCCN [2,4-Tetraethylenepentamine] | 60 |

Form field: reported Copper Removing Performance from Shampoo of NCCN(CCN)CCN [Tris(2-aminoethyl)amine]
45

Form field: reported Copper Removing Performance from Shampoo of CC(O)CN(CCN(CC(C)O)CC(C)O)CC(C)O (centres unmarked) [Ethylenedinitrilotetrapropan-2-ol]
30

Reference for the values: patent US11166894B2
